- Species: Rattus norvegicus
- assaySummary: DrugMatrix - Regimen: Daily Repeat
- Type: toxicity, organism-based, Sprague-Dawley
- Set-up: regimen Daily Repeat, gender Male, age 6-8 weeks
- conditionDetails: in vivo, po, 0 mg/kg, 120 h, tissue Plasma, route oral GAVAGE, dose level Control, time 5 day, vehicle 100 % WATER
The following molecules are listed with their measured TOTAL BILIRUBIN values.
parameter: TOTAL BILIRUBIN (mg/dL)

INSERT INTO measurements (molecule, endpointresult) VALUES
  ('Clc1ccc(C(c2ccccc2Cl)C(Cl)Cl)cc1 (centres undefined) [MITOTANE]', 0.23),
  ('CC(C)(S)[C@@H](N)C(=O)O [PENICILLAMINE]', 0.15),
  ('O=C1NC(=O)C(c2ccccc2)(c2ccccc2)N1 [PHENYTOIN]', 0.18),
  ('CC(CCc1ccccc1)NCC(O)c1ccc(O)c(C(N)=O)c1 (centres undefined) [LABETALOL]', 0.22),
  ('CNCCC=C1c2ccccc2CCc2ccccc21 [NORTRIPTYLINE]', 0.18),
  ('CC1(C)S[C@@H]2[C@H](NC(=O)[C@H](N)c3ccc(O)cc3)C(=O)N2[C@H]1C(=O)O [AMOXICILLIN]', 0.2),
  ('CN1CCN(C(=O)OC2c3nccnc3C(=O)N2c2ccc(Cl)cn2)CC1 (centres undefined) [ZOPICLONE]', 0.17),
  ('Cc1cc(NS(=O)(=O)c2ccc(N)cc2)no1 [SULFAMETHOXAZOLE]', 0.23),
  ('C[C@]12Cc3c[nH]nc3C[C@@H]1CC[C@@H]1[C@@H]2CC[C@@]2(C)[C@H]1CC[C@]2(C)O [STANOZOLOL]', 0.13);
